Data origin, for the record: ChEMBL document CHEMBL5579809

target: Protein cereblon/CREB-binding protein (Homo sapiens) (UniProt Q92793+Q96SW2); experiment: PROTAC activity at CRBN/HiBiT-tagged CBP in human HAP1 cells assessed as induction of CBP degradation by measuring maximal efficacy at 0.1 nM measured over 24 hrs by luminescence based analysis relative to control; type: cell-based
Sequence (Q92793 2-2442 limits assumed): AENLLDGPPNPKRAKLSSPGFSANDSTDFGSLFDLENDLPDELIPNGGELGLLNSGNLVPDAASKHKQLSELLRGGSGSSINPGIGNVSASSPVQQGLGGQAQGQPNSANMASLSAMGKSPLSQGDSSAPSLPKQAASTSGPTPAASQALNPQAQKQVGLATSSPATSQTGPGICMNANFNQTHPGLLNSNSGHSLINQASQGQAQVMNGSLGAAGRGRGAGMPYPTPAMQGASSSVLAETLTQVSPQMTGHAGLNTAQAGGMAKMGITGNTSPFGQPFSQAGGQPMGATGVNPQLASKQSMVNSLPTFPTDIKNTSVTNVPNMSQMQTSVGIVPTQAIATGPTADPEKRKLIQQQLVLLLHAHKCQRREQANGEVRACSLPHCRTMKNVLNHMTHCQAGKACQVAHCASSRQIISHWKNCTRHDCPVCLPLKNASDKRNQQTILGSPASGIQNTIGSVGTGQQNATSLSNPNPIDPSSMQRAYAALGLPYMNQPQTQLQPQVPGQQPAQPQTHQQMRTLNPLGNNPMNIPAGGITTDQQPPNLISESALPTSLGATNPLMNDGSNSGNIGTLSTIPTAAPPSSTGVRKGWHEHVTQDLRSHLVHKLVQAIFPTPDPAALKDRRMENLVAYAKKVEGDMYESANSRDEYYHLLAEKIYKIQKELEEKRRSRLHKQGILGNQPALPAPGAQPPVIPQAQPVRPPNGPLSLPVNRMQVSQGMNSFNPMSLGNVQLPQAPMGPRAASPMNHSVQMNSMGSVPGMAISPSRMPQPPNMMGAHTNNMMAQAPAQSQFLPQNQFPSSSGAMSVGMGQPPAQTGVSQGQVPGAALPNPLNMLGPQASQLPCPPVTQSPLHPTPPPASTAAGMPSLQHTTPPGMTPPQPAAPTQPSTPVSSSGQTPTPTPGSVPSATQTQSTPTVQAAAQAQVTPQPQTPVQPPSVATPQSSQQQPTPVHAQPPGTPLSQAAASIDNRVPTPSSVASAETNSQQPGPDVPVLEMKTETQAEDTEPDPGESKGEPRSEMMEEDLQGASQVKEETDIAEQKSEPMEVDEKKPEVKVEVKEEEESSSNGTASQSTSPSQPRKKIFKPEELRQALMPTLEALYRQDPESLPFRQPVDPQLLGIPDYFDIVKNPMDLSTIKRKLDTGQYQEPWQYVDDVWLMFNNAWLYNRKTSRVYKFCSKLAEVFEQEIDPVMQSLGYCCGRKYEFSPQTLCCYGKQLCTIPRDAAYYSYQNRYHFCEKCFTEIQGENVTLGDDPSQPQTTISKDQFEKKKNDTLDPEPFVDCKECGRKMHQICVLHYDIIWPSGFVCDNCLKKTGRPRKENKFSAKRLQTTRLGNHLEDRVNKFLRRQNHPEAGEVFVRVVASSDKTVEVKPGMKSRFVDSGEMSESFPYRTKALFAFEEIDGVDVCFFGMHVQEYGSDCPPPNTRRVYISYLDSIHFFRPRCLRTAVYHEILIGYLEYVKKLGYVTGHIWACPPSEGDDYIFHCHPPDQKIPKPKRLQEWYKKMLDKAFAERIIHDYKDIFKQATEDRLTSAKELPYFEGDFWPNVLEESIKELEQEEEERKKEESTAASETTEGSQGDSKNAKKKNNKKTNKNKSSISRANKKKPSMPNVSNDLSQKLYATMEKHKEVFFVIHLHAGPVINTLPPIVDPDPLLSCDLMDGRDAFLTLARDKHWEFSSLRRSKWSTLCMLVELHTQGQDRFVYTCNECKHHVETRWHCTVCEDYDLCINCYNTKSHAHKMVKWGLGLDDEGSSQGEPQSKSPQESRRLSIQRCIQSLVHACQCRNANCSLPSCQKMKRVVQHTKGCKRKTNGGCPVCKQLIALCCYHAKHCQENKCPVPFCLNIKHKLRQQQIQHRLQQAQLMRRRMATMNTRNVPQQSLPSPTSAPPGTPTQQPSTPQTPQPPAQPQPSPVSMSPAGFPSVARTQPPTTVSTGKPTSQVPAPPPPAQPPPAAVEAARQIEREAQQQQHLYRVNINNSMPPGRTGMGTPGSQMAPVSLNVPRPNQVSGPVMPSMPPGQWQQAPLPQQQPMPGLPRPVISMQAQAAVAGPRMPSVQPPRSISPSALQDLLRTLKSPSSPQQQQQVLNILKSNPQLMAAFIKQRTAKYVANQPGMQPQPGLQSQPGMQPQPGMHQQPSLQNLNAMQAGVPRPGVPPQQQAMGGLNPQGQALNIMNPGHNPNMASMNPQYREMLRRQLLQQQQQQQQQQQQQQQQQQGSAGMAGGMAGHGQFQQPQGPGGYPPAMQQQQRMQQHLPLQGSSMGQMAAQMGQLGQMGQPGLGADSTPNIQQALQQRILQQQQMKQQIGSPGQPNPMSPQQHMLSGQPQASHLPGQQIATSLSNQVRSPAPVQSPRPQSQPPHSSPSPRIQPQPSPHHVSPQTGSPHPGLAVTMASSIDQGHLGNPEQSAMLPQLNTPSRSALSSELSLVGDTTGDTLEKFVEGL
Sequence (Q96SW2 whole entry partner): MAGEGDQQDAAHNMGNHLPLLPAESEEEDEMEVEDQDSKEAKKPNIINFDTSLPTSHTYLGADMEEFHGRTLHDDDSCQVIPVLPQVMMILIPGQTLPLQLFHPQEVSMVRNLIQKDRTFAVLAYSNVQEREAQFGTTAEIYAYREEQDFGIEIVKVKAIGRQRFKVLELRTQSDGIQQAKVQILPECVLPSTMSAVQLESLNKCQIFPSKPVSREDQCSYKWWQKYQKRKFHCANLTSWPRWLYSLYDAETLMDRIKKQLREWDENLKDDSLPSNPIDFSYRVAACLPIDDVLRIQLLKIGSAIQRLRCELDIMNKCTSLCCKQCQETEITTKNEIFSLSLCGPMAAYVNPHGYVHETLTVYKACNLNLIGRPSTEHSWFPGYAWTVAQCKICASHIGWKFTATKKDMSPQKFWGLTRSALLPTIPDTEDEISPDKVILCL
Exercise: for every item that follows, state its recorded Emax.
# number then unit; no other words

Compound	Emax
CNC(=O)N1CCc2c(c(N3CCCc4cc(-c5cnn(C)c5)c(C(F)F)cc43)nn2C2CCN(C(=O)CCOCCNc3ccc4c(c3)C(=O)N(C3CCC(=O)NC3=O)C4=O)CC2)C1 (centres undefined)	11%
CNC(=O)N1CCc2c(c(N3CCCc4cc(-c5cnn(C)c5)c(C(F)(F)F)cc43)nn2C2CCN(C(=O)CCOCCOCCOCCOCCNc3ccc4c(c3)C(=O)N(C3CCC(=O)NC3=O)C4=O)CC2)C1 (centres undefined)	20%
CNC(=O)N1CCc2c(c(N3CCCc4cc(-c5cnn(C)c5)c(C(F)F)cc43)nn2C2CCN(C(=O)CCOCCOCCOCCOCCOCCOCCNc3ccc4c(c3)C(=O)N(C3CCC(=O)NC3=O)C4=O)CC2)C1 (centres undefined)	8.6%

# evaluate next
Requested read-out: Emax. Entry: CNC(=O)N1CCc2c(c(N3CCCc4cc(-c5cnn(C)c5)c(C(F)F)cc43)nn2C2CCN(C(=O)CCOCCOCCOCCOCCNc3ccc4c(c3)C(=O)N(C3CCC(=O)NC3=O)C4=O)CC2)C1 (centres undefined)
25%

----------
target: Protein cereblon/Histone acetyltransferase p300 (Homo sapiens) (UniProt Q09472+Q96SW2); test: PROTAC activity at CRBN/HiBiT-tagged p300 in human HAP1 cells assessed as total cumulative degradation by measuring AUC at 10 nM measured over 24 hrs by luminescence based analysis; assay type: cell-based
Result Type: AUC
One number for each entry.

Compound	AUC
CNC(=O)N1CCc2c(c(N3CCCc4cc(-c5cnn(C)c5)c(C(F)F)cc43)nn2C2CCN(C(=O)CCOCCNc3ccc4c(c3)C(=O)N(C3CCC(=O)NC3=O)C4=O)CC2)C1 (configuration not stated)	9.2
CNC(=O)N1CCc2c(c(N3CCCc4cc(-c5cnn(CC(=O)NCCOCCNc6ccc7c(c6)C(=O)N(C6CCC(=O)NC6=O)C7=O)c5)c(C(F)F)cc43)nn2C2CCOCC2)C1 (configuration not stated)	13.7
CNC(=O)N1CCc2c(c(N3CCCc4cc(-c5cnn(C)c5)c(C(F)F)cc43)nn2C2CCN(C(=O)CCOCCOCCOCCOCCNc3ccc4c(c3)C(=O)N(C3CCC(=O)NC3=O)C4=O)CC2)C1 (configuration not stated)	5.1
CNC(=O)N1CCc2c(c(N3CCCc4cc(-c5cnn(C)c5)c(C(F)(F)F)cc43)nn2C2CCN(C(=O)CCOCCOCCOCCOCCNc3ccc4c(c3)C(=O)N(C3CCC(=O)NC3=O)C4=O)CC2)C1 (configuration not stated)	5.2
CNC(=O)N1CCc2c(c(N3CCCc4cc(-c5cnn(CC(=O)NCCOCCOCCOCCOCCOCCOCCNc6ccc7c(c6)C(=O)N(C6CCC(=O)NC6=O)C7=O)c5)c(C(F)F)cc43)nn2C2CCOCC2)C1 (configuration not stated)	22.7
CNC(=O)N1CCc2c(c(N3CCCc4cc(-c5cnn(CC(=O)NCCOCCOCCOCCOCCNc6ccc7c(c6)C(=O)N(C6CCC(=O)NC6=O)C7=O)c5)c(C(F)F)cc43)nn2C2CCOCC2)C1 (configuration not stated)	21.3

Would you kindly look at the next entry?
Notebook: pull reported AUC for Protein cereblon/Histone acetyltransferase p300 (Homo sapiens) (UniProt Q09472+Q96SW2), entry CNC(=O)N1CCc2c(c(N3CCN(C(=O)NCCOCCOCCOCCOCCNc4ccc5c(c4)C(=O)N(C4CCC(=O)NC4=O)C5=O)c4cc(-c5cnn(C)c5)c(C(F)(F)F)cc43)nn2C2CCOCC2)C1 (configuration not stated)
26.9
